- System: HL-60(TB) leukemia
- assay.method.text: NCI-60 one-dose screen, 48 h (100 = growth as untreated, 0 = no growth, -100 = all killed)
- test.settings: 10 µM unless noted
Compounds without any hit were thinned out: in the full panel of roughly 83,000, 20% have a hit.
growth values by entry
Kindly provide the numeric value in % only, without the unit symbol.

Consider the following illustrative entries.
compound	experimental.target	units.label	reported
COc1ccc(NC(=O)c2sc3nc(C)c(C(=O)/C=C/c4cccc(OC)c4)cc3c2N)cc1	HL-60(TB) leukemia	%	33.6
COc1cccc(-c2nc3occn3c2-c2ccnc(NCCCNS(=O)(=O)c3cccc(F)c3)n2)c1	HL-60(TB) leukemia	%	112
CCc1ccc(CCCC(=O)O)cc1	HL-60(TB) leukemia	%	98.8
Nc1cc(N)ncn1	HL-60(TB) leukemia	%	47.3
Cc1c2c(cn1Cc1ccccc1)CCc1cn[nH]c1-2	HL-60(TB) leukemia	%	90.6
CCCCOc1nc2ccccc2cc1/C=C/c1cc(/C=C/c2cc3ccccc3nc2OCCCC)n(-c2ccccc2)n1	HL-60(TB) leukemia	%	97.5
O=C(c1ccc(Cl)cc1Cl)N1CCOCC1	HL-60(TB) leukemia	%	105
O=C(/C=C/C=C/c1ccccc1)c1ccco1	HL-60(TB) leukemia	%	-38.2

In: In one line, give reported growth of the entry `COc1ccc2nc(NC(=O)CN3CCn4c(nnc4C(F)(F)F)C3)sc2c1` .
Out: 103

In: Give the reported value of growth for this record: `COc1ccc(-c2conc2-n2nc(-c3ccccc3)nc2-c2ccccc2)cc1`
Out: 99.3

In: Identify measured growth associated with `COc1ccc(/C=C(/C(=O)N2CCN(c3ccccc3)CC2)c2cc(OC)c(OC)c(OC)c2)cc1N`
Out: -37.5

In: Identify the reported growth for the following entry. `Cc1cc(Nc2ccc(Cl)c(Cl)c2)nc(N)n1`
Out: 62.7

In: For the compound `NC(=O)c1ccccc1NC(=O)c1ccccc1Cl` , give its measured growth value.
Out: 64.4

In: Give growth for the following compound: `O=S(=O)(NCCCNc1nccc(-c2c(-c3ccc(F)c(O)c3)nc3occn23)n1)c1ccc(Cl)cc1`
Out: 94.2

In: Quote growth reported for `Cc1ccc2nc(C[n+]3ccc4ccccc4c3)ccc2c1` please.
Out: 26.1

In: Given the compound `NNC(=O)Nc1ccccc1` , write its reported growth.
Out: 102

In: Please look at this compound and report its growth: `COc1cc(/C=N/NC(=O)c2ccccc2Nc2cccc(C(F)(F)F)c2)ccc1O`
Out: 26.9

* * *

- Tested on: HL-60(TB) leukemia
- assay.method.text: NCI-60 one-dose screen, 48 h
- test.settings: 10 µM unless noted
This is part of a sample that, as a whole, favours compounds with a hit. Of some 83,000 tested, about 20% had one in any assay. Calls of active or inactive are those of the source. The calls were made as follows: active = growth percent below 10; inactive = the rest.
Could you please pick one outcome from this set? 1.0 = active, 0.0 = inactive

Here's what some known entries look like.
compound.structure	category.label
CCN(CC)CCNC(=O)c1cn2ncnc(Oc3ccc(NC(=O)Nc4ccc(Cl)c(C(F)(F)F)c4)cc3)c2c1C	1.0
CC(=O)OCc1nc(C#N)c(N(C)C)o1	0.0
O=C(O)CCCCSc1ncnc2nc[nH]c12	0.0

In: Any idea what this test logged for `CC(C)CCN(CCCNc1c2c(nc3ccccc13)CCCC2)CCC(C)C` ?
Out: 0.0

In: Short answer needed: outcome of this test for `CCn1cnc(C[C@H](NC(=O)[C@H](CCCCNC(=O)Nc2cc(C(F)(F)F)cc(C(F)(F)F)c2)NC(=O)Nc2cc(C(F)(F)F)cc(C(F)(F)F)c2)C(=O)OC)c1` ?
Out: 1.0

In: Could you kindly confirm the outcome this assay logged for `CC(C)Sc1nc(NN)c(C#N)c(-c2ccccc2)n1` ?
Out: 0.0

* * *

- System: HL-60(TB) leukemia
- assay.method.text: NCI-60 one-dose screen, 48 h (100 = growth as untreated, 0 = no growth, -100 = all killed)
- test.settings: 10 µM unless noted
This is part of a sample that, as a whole, favours compounds with a hit. Of some 83,000 tested, about 20% had one in any assay.
Reported growth by item:
Give the value, in units of %, as a plain number.

Study these solved cases before continuing.
compound	units.label	growth
COc1cc(CC#N)c([N+](=O)[O-])cc1OC	%	92.6
COc1cc2c(cc1OCCCN1CCN(CCCOc3cc4c(cc3OC)C(=O)N3C[C@H](F)C[C@H]3C=N4)CC1)N=C[C@@H]1C[C@@H](F)CN1C2=O	%	-28.8
COC(=O)c1ccc(=O)c2nc3/c(=C/O)c(O)cc(=O)c3[nH]c12	%	0.308
O=C(NC[C@H](O)CN1CCc2ccccc2C1)c1cc(NC2COC2)ncn1	%	119

Please look at the following compound next.
In: Specify the recorded growth for Clc1ccc(C(Cn2ccnc2)OCc2ccsc2Cl)c(Cl)c1 (stereo not given) , system: HL-60(TB) leukemia.
Out: 6.05

* * *

- System: HL-60(TB) leukemia
- assay.method.text: NCI-60 one-dose screen, 48 h (100 = growth as untreated, 0 = no growth, -100 = all killed)
- test.settings: 10 µM unless noted
- Procedure: Growth inhibition of the HL-60(TB) human tumor cell line is measured as a screen for anti-cancer activity. Cells are grown in 96 well plates and exposed to the test compound for 48 hours. Compounds are tested at a single concentration, which is 10^-5 M for most compounds. The reported endpoint is percent growth (GI% or GIPRCNT), where numbers from 0 - 100% represent growth inhibition, and numbers from -100% - 0 represent cell death. For example, a value of 40 represents 60% growth inhibition. […]
Compounds without any hit were thinned out: in the full panel of roughly 83,000, 20% have a hit.
Here the recorded growth is given for each entry.
Note: unit % is implicit; provide only the numeric part.

molecule	growth [%]
O=C(Nc1cccc2[nH]c(C(F)(F)F)nc12)c1cc(Cl)ccc1Cl	36.4
O=C(N/N=C/c1c(Cl)cccc1Cl)c1cccnc1Nc1cccc(C(F)(F)F)c1	28.1
CC(C)N1C(=O)/C(=C2\SC(=S)N(C(C)C)C2=O)SC1=S	100
Cc1ccc(NCCN2CCCCC2)c2c(=O)c3ccccc3sc12	1.52
Cc1ccc(NC(=O)Cn2cc(CN3CCN(c4ccnc5cc(Cl)ccc45)CC3)nn2)cc1	87
Cc1cc(C(=O)NN)c(C#N)c(=O)[nH]1	111

In: Note growth for the molecule shown: `COc1ccc(-c2nc3c(c(-c4ccccc4)nn3-c3ccccc3)c(-c3ccc(N4CCN(C)CC4)cc3)c2C#N)cc1`
Out: 80.4

In: Look up and state reported growth for C=COC(=O)CCOCC(CC)CCCC (stereo not given)
Out: 91.8

In: Please give the documented growth of `Cc1nc(Nc2ccccn2)sc1C(=O)/C=C/c1ccc(Cl)cc1`
Out: -38.8

In: Specify reported growth for the molecule shown: `COc1ccc(OC)c(NCC(=O)n2nc(/C=C\c3ccc(O)c(OC)c3)cc2/C=C\c2ccc(O)c(OC)c2)c1`
Out: -8.64

* * *

growth values for the compounds below.
- Test system: HL-60(TB) leukemia
- assay.method.text: NCI-60 one-dose screen, 48 h (100 = growth as untreated, 0 = no growth, -100 = all killed)
- test.settings: 10 µM unless noted
This is part of a sample that, as a whole, favours compounds with a hit. Of some 83,000 tested, about 20% had one in any assay.
API: value field is a number in %; no unit string.

The examples below pair each entry with its known result.
compound	units.label	growth
COc1ccc(/C=C(\C#N)c2ccc([N+](=O)[O-])cc2)c2ccccc12	%	85.4
CC1CN(Cc2ccco2)C(=S)N(c2ccccc2)C1=O (configuration not stated)	%	61.3
O=C(Nc1ccc(Oc2cccc(Cl)c2)c(Cl)c1)c1cnccn1	%	1.5
COc1ccc(NC(=O)c2cc3ccccc3nc2Nc2cc(OC)c(OC)c(OC)c2)cc1	%	67.3
O=C1/C(=C/c2ccccc2Br)COc2ccc(O)c(O)c21	%	-9.04

In: Return growth (reported value) for this compound: `COc1ccc(OC)c(NC=O)c1`
Out: 62.2

In: Give the value of growth reported for the following: `Nc1nc(N)nc(NCc2ccccc2)n1`
Out: 98.6

In: State, in one line, measured growth of `CC(C)=NNc1ccccn1`
Out: 34.6

In: State, in one line, measured growth of CN(C)C(C(N)=O)c1ccc(Cl)cc1 (configuration not stated)
Out: 89.6

* * *

- Tested on: HL-60(TB) leukemia
- assay.method.text: NCI-60 one-dose screen, 48 h
- test.settings: 10 µM unless noted
This is part of a sample that, as a whole, favours compounds with a hit. Of some 83,000 tested, about 20% had one in any assay. Active and inactive are the calls of the source. The calls were made as follows: active = growth percent below 10; inactive = the rest.
Would you mind answering with one of these outcomes? True (active), False (inactive)

Sample answers from the record:
compound	category.label
CCC1=C[C@@H]2C[C@]3(C(=O)OC)c4[nH]c5ccccc5c4CC[N@+](CC(=O)Nc4cc5c(cc4OC)N(C)[C@H]4[C@@](O)(C(=O)OC)[C@H](OC(C)=O)[C@]6(CC)C=CCN7CC[C@]54[C@@H]76)(C2)[C@H]13	False
Cc1ccc(-c2nnc(COc3ccc(-c4nnc(N)s4)cc3)o2)cc1	False
Nc1ccccc1NC(=O)CCCCC(=O)Nc1ccc2c(c1)/C(=C/c1ccc[nH]1)C(=O)N2	False
Cc1nc2c(=O)[nH]c(SCC(=O)Nc3cccc(F)c3)nc2[nH]c1=O	False
CCCCCCCCCCCCN1CCCC(C)C1 (stereo not given)	False
CN(C)c1ncnc2c1nnn2C1OC(CO)C(O)C1O (stereo not given)	True
Fc1ccc(Nc2nc(NCCNc3ccnc4cc(Cl)ccc34)nc(N3CCOCC3)n2)cc1	True
CN(C)CCCOc1ccc(OCCCN(C)C)c2c1C(=O)c1ccccc1C2=O	True

In: Could you check what this test reported for `Cc1ccc(/C=C/c2c(C(=O)/C=C/c3ccc(C(F)(F)F)cc3)c(C)nc3ccccc23)cc1` ?
Out: True
